B1: ATL3 (parent)
chain: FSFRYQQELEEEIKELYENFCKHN

# Variants of: B1
# assay.remarks: protein stability index of a GFP-peptide fusion (GPS, HEK-293T) (PSI 1-6); higher = more stable;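 further: lentivirally expressed fusions sorted by FACS into six bins by GFP to DsRed ratio, PSI derived from sequencing read proportions per bin multiplied by bin number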
# measurement.conditions: c terminus: a fixed tail appended
Classify on protein stability index using bottom = under 2, middle = from 2 up to 3, top = 3 and over

The following variants have reported results that may help.
{"variant.key": "N24V", "group.label": "top"}
{"variant.key": "K14V", "group.label": "middle"}
{"variant.key": "F3G", "group.label": "top"}
{"variant.key": "L9Y", "group.label": "middle"}
{"variant.key": "L9I", "group.label": "middle"}

Prompt line: Would you mind sorting C21A into the appropriate category?
Response line: top

Prompt line: Would you mind sorting I13G into the appropriate category?
Response line: middle

Prompt line: Would you mind sorting F1G into the appropriate category?
Response line: top

The reported measurements were obtained from the supplement of paper PMC10567573.
